Data origin: PubChem BioAssay (EPA / NIEHS)

SYSTEM: human Thyroid Receptor alpha (THRa1), THRA (gene 7067) (UniProt P10827)
Sequence (P10827 whole entry, looked up): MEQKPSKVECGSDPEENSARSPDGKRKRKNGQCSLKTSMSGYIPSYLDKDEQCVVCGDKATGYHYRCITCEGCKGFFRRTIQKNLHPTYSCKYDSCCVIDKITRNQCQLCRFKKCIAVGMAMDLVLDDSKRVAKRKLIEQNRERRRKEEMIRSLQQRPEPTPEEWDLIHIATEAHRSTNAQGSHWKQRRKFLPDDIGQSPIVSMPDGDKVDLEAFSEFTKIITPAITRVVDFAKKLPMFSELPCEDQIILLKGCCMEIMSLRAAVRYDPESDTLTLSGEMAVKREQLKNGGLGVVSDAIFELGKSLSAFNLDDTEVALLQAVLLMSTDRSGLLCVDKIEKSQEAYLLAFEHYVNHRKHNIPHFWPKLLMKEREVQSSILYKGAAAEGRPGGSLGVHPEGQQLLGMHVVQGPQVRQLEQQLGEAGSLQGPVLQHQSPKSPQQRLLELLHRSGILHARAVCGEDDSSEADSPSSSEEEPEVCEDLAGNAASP
EXPERIMENTAL_DETAILS: ATG_THRa1_TRANS: Attagene TRANS-FACTORIAL HepG2 Assay for human Thyroid Receptor alpha (THRa1) (AID 2283014)
Records with an inconclusive call do not appear. Calls of active or inactive are those of the source. Rule for the calls: active = hit-call score of the fitted dose curve at least 0.9, where 1 is the maximum; inconclusive = response in the unintended direction; inactive = score below 0.9.
READOUT_LABEL: outcome

- COMPOUND: "CCCCOCCOCCO"
  outcome: "inactive"
- COMPOUND: "c1coc(CNc2ncnc3nc[nH]c23)c1"
  outcome: "inactive"
- COMPOUND: "Cc1ccccc1S"
  outcome: "inactive"
- COMPOUND: "CCC=C(C)C=O"
  outcome: "inactive"
- COMPOUND: "ClCCOCCOCCCl"
  outcome: "inactive"
- COMPOUND: "[Cu+]"
  outcome: "inactive"

Provide the reported outcome of each entry below, same order.
1. CCc1cccc(O)c1
2. CCOC(=O)CC1(C)OCC(C)O1 (centres undefined)
3. COc1ccc(C(C)=O)cc1

**Result**
inactive
inactive
inactive

---

EXPERIMENTAL_DETAILS: ATG_AP_1_CIS: Attagene CIS-FACTORIAL HepG2 Assay for human Activator Protein 1 (AP-1) (AID 2282931)
STUDY_CONDITIONS: HepG2 Attagene cis-factorial AP-1 reporter mRNA; actives raise or lower the signal
Active and inactive are the calls of the source. Rule for the calls: active = hit-call score of the fitted dose curve at least 0.9, where 1 is the maximum; inactive = score below 0.9.
Can you answer with just one of these options? active, inactive

Solved cases (8 shown):
- MOLECULE: "Cc1cc(O)c2c(c1)C(=O)c1cc(O)cc(O)c1C2=O"
  CATEGORY: "inactive"
- MOLECULE: "CCCCCCCCCCCCOCCOS(=O)(=O)O"
  CATEGORY: "inactive"
- MOLECULE: "CCCCCCC(O)CCOC(C)=O (stereo not given)"
  CATEGORY: "inactive"
- MOLECULE: "CC(C)COC(=O)c1ccccc1O"
  CATEGORY: "inactive"
- MOLECULE: "c1ccc2scnc2c1"
  CATEGORY: "inactive"
- MOLECULE: "CC(CO)(CO)[N+](=O)[O-]"
  CATEGORY: "inactive"
- MOLECULE: "O=C(O)c1ccc(C(=O)O)c(C(=O)O)c1"
  CATEGORY: "inactive"
- MOLECULE: "CC(C)=CC(=O)O"
  CATEGORY: "inactive"

**Query** So what was the verdict on O=C(O)C1=NN(c2ccc(S(=O)(=O)O)cc2)C(=O)C1 in this test?
**Result** inactive

**Query** So what was the verdict on COc1ccc(C(C)=O)cc1 in this test?
**Result** inactive

**Query** So what was the verdict on C/C=C(\C)C(=O)OC/C=C(\C)CCC=C(C)C in this test?
**Result** inactive

**Query** So what was the verdict on O=C(O)c1ccccc1O in this test?
**Result** inactive

**Query** So what was the verdict on CC/C=C\C#N in this test?
**Result** inactive

---

EXPERIMENTAL_DETAILS: BSK_BT_PBMCCytotoxicity: PBMC Cytotoxicity Assessment in the BioMAP Diversity Plus: BT Assay (AID 2284225);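 note: PBMC viability measured by Alamar Blue dye reduction fluorescence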
STUDY_CONDITIONS: primary human B cells with PBMC
Calls of active or inactive are those of the source. How the source made its calls: active means hit-call score of the fitted dose curve at least 0.9, where 1 is the maximum; inactive means score below 0.9.
Can you answer with just one of these options? active, inactive

Solved cases (8 shown):
- COMPOUND: "CCOC(=O)CCCCCCCCC(=O)OCC"
  CATEGORY: "inactive"
- COMPOUND: "COc1ccccc1NC(=O)CC(C)=O"
  CATEGORY: "inactive"
- COMPOUND: "CCCCCCCCCC(=O)OCC"
  CATEGORY: "inactive"
- COMPOUND: "CC(=O)OC(C)(C)C1CC=C(C)CC1 (stereo not drawn)"
  CATEGORY: "inactive"
- COMPOUND: "C=C(F)C(=O)OC(C(F)(F)F)C(F)(F)F"
  CATEGORY: "inactive"
- COMPOUND: "CC(C)(C)c1cccc(O)c1"
  CATEGORY: "inactive"
- COMPOUND: "c1ccc2c(c1)-c1ccc3ccc4cccc5cc-2c1c3c45"
  CATEGORY: "inactive"
- COMPOUND: "CC1=CC(C)C(C=O)C(C)C1 (stereo not drawn) (tested in a mixture with another compound)"
  CATEGORY: "inactive"

**Query** So what was the verdict on CC=CC(=O)C1=C(C)C=CCC1(C)C in this test?
**Result** inactive

**Query** So what was the verdict on O=C1OC2(c3ccc(O)cc3Oc3cc(O)ccc32)c2ccccc21 in this test?
**Result** inactive

**Query** So what was the verdict on CCCCCCCCCCCCS in this test?
**Result** inactive

**Query** So what was the verdict on CC(=O)OCC=C(C)CCC=C(C)CCC=C(C)C in this test?
**Result** active

**Query** So what was the verdict on CC(=O)CCC=C(C)CCC=C(C)C in this test?
**Result** inactive

---

Read-out: Monokine induced gamma interferon (MIG), CXCL9 (gene 4283)
EXPERIMENTAL_DETAILS: BSK_hDFCGF_MIG: BioMAP Diversity Plus: hDFCGF Assay for Monokine induced gamma interferon (MIG) Biomarker Activity (AID 2283063)
STUDY_CONDITIONS: primary human foreskin fibroblasts; actives raise or lower the signal
Method: BSK_hDFCGF is a cell-based, multiplexed-readout assay that uses foreskin fibroblast, a human skin primary cell, with measurements taken at 24 hours after chemical dosing in a 96-well plate.BSK_hDFCGF_MIG is an assay component measured in the BSK_hDFCGF assay. It measures MIG antibody related to regulation of gene expression using ELISA technology.Data from the assay component BSK_hDFCGF_MIG was analyzed into 1 assay endpoint. […]
The source made the active and inactive calls. The calls were made as follows: active = hit-call score of the fitted dose curve at least 0.9, where 1 is the maximum; inactive = score below 0.9.
Can you answer with just one of these options? active, inactive

- MOLECULE: "C=C(F)C(=O)OC(C(F)(F)F)C(F)(F)F"
  CATEGORY: "inactive"
- MOLECULE: "CC(C)(C)c1cccc(O)c1"
  CATEGORY: "inactive"
- MOLECULE: "CC(C)Cc1ccc(C(C)C(=O)O)cc1 (stereo not drawn)"
  CATEGORY: "inactive"
- MOLECULE: "CCOC(=O)CCCCCCCCC(=O)OCC"
  CATEGORY: "inactive"
- MOLECULE: "c1ccc2c(c1)-c1ccc3ccc4cccc5cc-2c1c3c45"
  CATEGORY: "inactive"
- MOLECULE: "CCCO[Si](OCCC)(OCCC)OCCC"
  CATEGORY: "inactive"
- MOLECULE: "O=C(c1ccc(OCCN2CCCCC2)cc1)c1c(-c2ccc(O)cc2)sc2cc(O)ccc12"
  CATEGORY: "active"
- MOLECULE: "C#C[C@]1(O)CC[C@H]2[C@@H]3CCc4cc(O)ccc4[C@H]3CC[C@@]21C"
  CATEGORY: "inactive"

**Query** So what was the verdict on CC(=O)OC(C)(C)C1CC=C(C)CC1 (stereo not drawn) in this test?
**Result** inactive

---

Read-out: Tissue plasminogen activator (tPA), PLAT (gene 5327)
EXPERIMENTAL_DETAILS: BSK_BE3C_tPA: BioMAP Diversity Plus: BE3C Assay for Tissue plasminogen activator (tPA) Biomarker Activity (AID 2283041)
STUDY_CONDITIONS: primary human bronchial epithelial cells; actives raise or lower the signal
Activity calls are given as the source filed them. The calls were made as follows: active = hit-call score of the fitted dose curve at least 0.9, where 1 is the maximum; inactive = score below 0.9.
Can you answer with just one of these options? active, inactive

Solved cases (5 shown):
- COMPOUND: "O=C(O)C(F)(F)C(F)(F)C(F)(F)C(F)(F)C(F)(F)C(F)(F)C(F)(F)C(F)F"
  CATEGORY: "inactive"
- COMPOUND: "c1ccc2c(c1)-c1ccc3ccc4cccc5cc-2c1c3c45"
  CATEGORY: "inactive"
- COMPOUND: "CCCCCCCCCC(=O)OCC"
  CATEGORY: "active"
- COMPOUND: "CC(=O)OC(C)(C)C1CC=C(C)CC1 (centres undefined)"
  CATEGORY: "active"
- COMPOUND: "OCCN1CCOCC1"
  CATEGORY: "inactive"

**Query** So what was the verdict on O=C(c1ccc(OCCN2CCCCC2)cc1)c1c(-c2ccc(O)cc2)sc2cc(O)ccc12 in this test?
**Result** active

**Query** So what was the verdict on CCCO[Si](OCCC)(OCCC)OCCC in this test?
**Result** inactive

**Query** So what was the verdict on O=C1OC2(c3ccc(O)cc3Oc3cc(O)ccc32)c2ccccc21 in this test?
**Result** inactive

**Query** So what was the verdict on C=C(C)C(N)=O in this test?
**Result** inactive

---

EXPERIMENTAL_DETAILS: BSK_LPS_SRB: Viability Assessment in the BioMAP Diversity Plus: LPS Assay (AID 2283079);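 note: total protein by sulforhodamine B absorbance as a cytotoxicity measure; measured one day after compound addition; fitted in both directions against DMSO so loss or gain of signal counts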
STUDY_CONDITIONS: primary human HUVEC with PBMC
The source made the active and inactive calls. The calls were made as follows: active = hit-call score of the fitted dose curve at least 0.9, where 1 is the maximum; inactive = score below 0.9.
Can you answer with just one of these options? active, inactive

Solved cases (7 shown):
- COMPOUND: "CC=CC(=O)C1=C(C)C=CCC1(C)C"
  CATEGORY: "inactive"
- COMPOUND: "O=S1(=O)CC(Cl)(Cl)C(Cl)(Cl)C1"
  CATEGORY: "active"
- COMPOUND: "COc1ccccc1NC(=O)CC(C)=O"
  CATEGORY: "inactive"
- COMPOUND: "COC(=O)c1ccc(C(=O)OC)cc1"
  CATEGORY: "inactive"
- COMPOUND: "CCCCCCCCCC(=O)OCC"
  CATEGORY: "inactive"
- COMPOUND: "CCn1cc(C(=O)O)c(=O)c2ccc(C)nc21"
  CATEGORY: "inactive"
- COMPOUND: "c1ccc(Sc2ccccc2)cc1"
  CATEGORY: "active"

Kindly review the next compound as well.
**Query** So what was the verdict on CC(=O)OC(C)(C)C1CC=C(C)CC1 (stereo not drawn) in this test?
**Result** inactive
